Source of measurements: paper PMC9482650

# study.system: T1, SNTB1, Q13884
# T1 sequence (Q13884 107-205, limits assumed, looked up): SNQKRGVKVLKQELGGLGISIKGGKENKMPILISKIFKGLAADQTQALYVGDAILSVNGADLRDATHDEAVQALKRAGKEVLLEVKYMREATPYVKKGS
# run.description: holdup assay
# Design: key: below the threshold = too weak to quantify, mostly under pKd 3.1 to 4
# condition.details: plain residues with an end cap or a label only (N-terminal biotin on a linker: ado-ado)

[
  {
    "binder": "MQILSKPEFI [NPSR1, Q6W5P4]",
    "pKd": "below the threshold"
  },
  {
    "binder": "PSVYSRSQYV [CLDN8, P56748]",
    "pKd": "below the threshold"
  },
  {
    "binder": "VCMGDHWFDV [PRKN, O60260]",
    "pKd": "below the threshold"
  },
  {
    "binder": "KKTPVSRSHL [SLC22A3, O75751]",
    "pKd": "below the threshold"
  },
  {
    "binder": "VYEVPVETKF [SLC26A3, P40879]",
    "pKd": "below the threshold"
  },
  {
    "binder": "YAEKRMLTEV [KCNA6, P17658]",
    "pKd": "below the threshold"
  },
  {
    "binder": "FHSIKQSTAV [CRHR1, P34998]",
    "pKd": 3.75
  },
  {
    "binder": "IKLETKKTKL [SLC15A2, Q16348]",
    "pKd": 3.71
  }
]
